Assay: qHTS assay to identify small molecule agonists of the TGF-beta/Smad signaling pathway (AID 1346859); note: % is set by controls: 0 for no effect and ±100 for the full control effect
Conditions: SBE-bla HEK293T, TGF-beta/Smad beta-lactamase reporter, 5 h; series mostly up to 76.8 µM
Results filed as inconclusive are left out. The source made the active and inactive calls. Calls come from the whole dose curve; as a rule, active = well fitted activation curve with a large enough effect in the signal ratio in the repeat runs (not every such curve was filed as active); inconclusive = weak or mixed curves; inactive = flat fitted curve, though single readings scatter; the % refers to the signal ratio.
Value type: activation

INSERT INTO results (compound, result) VALUES
  ('O=C1N(c2ccccc2)c2ccccc2C1(Cc1ccncc1)Cc1ccncc1', 'inactive'),
  ('CCCCCCCOC(=O)CCC', 'inactive'),
  ('CCCC(CCC)(C(=O)OCC)C(=O)OCC', 'inactive'),
  ('Cc1ccsc1C(=CCCN1CCC[C@@H](C(=O)O)C1)c1sccc1C', 'inactive'),
  ('CCCCOc1cc(C(=O)NCCN(CC)CC)c2ccccc2n1', 'inactive');

Q: Tell me measured activation for O=C1Nc2ccc([N+](=O)[O-])cc2C1=O please.
Ans: inactive

Q: Supply reported activation belonging to this compound: CO[Si](C)(C)OC
Ans: inactive

Q: Give recorded activation. CCN(CC)CCNC(=O)COc1ccc(Cl)cc1
Ans: inactive

Q: Fill in activation for record O=C1CCC(C2CCCCC2)CC1
Ans: inactive

Q: Output activation of CC(=O)N(CC(O)CN(C(C)=O)c1c(I)c(C(=O)NCC(O)CO)c(I)c(C(=O)NCC(O)CO)c1I)c1c(I)c(C(=O)NCC(O)CO)c(I)c(C(=O)NCC(O)CO)c1I (centres undefined)
Ans: inactive

Q: Give reported activation value for CN(C)CCOc1ccccc1Cc1ccccc1
Ans: inactive

Q: Give activation for the following compound: Cc1cc2c(s1)Nc1ccccc1N=C2N1CCN(C)CC1
Ans: inactive

Q: Please list activation recorded for the compound CC1(C)O[C@@H]2C[C@H]3[C@@H]4CCC5=CC(=O)CC[C@]5(C)[C@@]4(F)[C@@H](O)C[C@]3(C)[C@]2(C(=O)CCl)O1
Ans: inactive

====

Molecular target: Nuclear receptor subfamily 1 group I member 2 (Rattus norvegicus)
Experiment: Rat pregnane X receptor (rPXR) activation by small molecules, qHTS assay (AID 1346983); note: % is set by controls: 0 for no effect and ±100 for the full control effect; nearly all actives have a fitted effect of over 20% in size
Conditions: rPXR luciferase reporter cells, One-Glo luminescence, 24 h; active compounds read high
Records with an inconclusive call do not appear.
Value type: max activation (%)
Enter your answer as a number in %; do not include the unit.

Q: Query max activation for Cc1c(C(=O)NCCO)[n+](=O)c2ccccc2n1[O-]
Ans: -3.05

Q: Fill in reported max activation for this entry: NC1=NCC2c3ccccc3Cc3ccccc3N12 (configuration not stated)
Ans: 0.173

Q: Consider the compound CCOC(=O)c1ccccc1O and give its recorded max activation.
Ans: -7.66

Q: Consider the compound NC/C=C/C(=O)O . State its measured max activation.
Ans: -4.44

Q: Report max activation, nothing else, for this compound: CO[C@@]1(NC(=O)CSCC#N)C(=O)N2C(C(=O)O)=C(CSc3nnnn3C)CS[C@@H]21
Ans: -3.26

Q: Note down max activation recorded for CCOC(=O)[C@H](CCc1ccccc1)N[C@@H](C)C(=O)N1Cc2cc(OC)c(OC)cc2C[C@H]1C(=O)O
Ans: -0.0593

Q: State its max activation for this compound: C=O
Ans: -2.05

Q: Kindly indicate its recorded max activation. Item: CN1CCN(c2c(F)cc3c(=O)c(C(=O)O)cn4c3c2SCC4)CC1
Ans: -4.92

Q: Supply recorded max activation for CC(=O)Oc1cc(C(C)C)c(OCCN(C)C)cc1C here.
Ans: -1.16

Q: Determine from records and report max activation for Oc1ccccc1C=NCc1ccccc1
Ans: -0.218

Q: State, in one line, measured max activation of OCc1ccccc1O
Ans: 11.7

Q: Give max activation for CC(C)C1=CC2=CC[C@@H]3[C@](C)(CCC[C@@]3(C)C(=O)O)[C@H]2CC1
Ans: -2.9

====

Test: qHTS assay to identify small molecule agonists of the progesterone receptor (PR) signaling pathway - cell viability counter screen (AID 1346799); note: % is set by controls: 0 for no effect and ±100 for the full control effect; nearly all actives have a fitted effect of over 45% in size
Settings: PR-UAS-bla HEK293T viability, CellTiter-Glo luminescence, 16 h; series mostly up to 92.4 µM
Records with an inconclusive call do not appear. Activity calls are given as the source filed them. The call rests on the fitted dose curve.
Value type: activity change, negative = cytotoxicity

INSERT INTO measurements (compound, value_type, result) VALUES
  ('FC(F)(F)c1ccccc1', 'activity change, negative = cytotoxicity', 'inactive'),
  ('CN1CCN(C2=Nc3cc(F)ccc3Cc3ccccc32)CC1', 'activity change, negative = cytotoxicity', 'inactive'),
  ('CCN(CC)CC1CCCCN1CC(=O)N1c2ccccc2C(=O)Nc2cccnc21 (centres undefined)', 'activity change, negative = cytotoxicity', 'inactive'),
  ('CC(C)=CCC[C@](C)(O)[C@@H]1CC=C(C)CC1', 'activity change, negative = cytotoxicity', 'inactive'),
  ('COc1ccccc1OCC(O)COC(N)=O (centres undefined)', 'activity change, negative = cytotoxicity', 'inactive');

Q: Given O=C(C(Cl)Cl)N1CCOC12CCCCC2 , respond with its activity change, negative = cytotoxicity.
Ans: inactive

Q: Please report activity change, negative = cytotoxicity for the following compound: CCCN(CCC)C(=O)C(CCC(=O)O)NC(=O)c1ccccc1 (centres undefined)
Ans: inactive

Q: Quickly give me recorded activity change, negative = cytotoxicity for O=C(Cl)c1cccc([N+](=O)[O-])c1
Ans: inactive

Q: Tell me activity change, negative = cytotoxicity reported for O=C1CCN(c2ccccc2)N1
Ans: inactive

Q: Indicate its recorded activity change, negative = cytotoxicity; the compound in question is CCC(=O)Nc1ccc(O)cc1
Ans: inactive

Q: # return recorded activity change, negative = cytotoxicity for input CC(C)S
Ans: inactive

Q: Quickly give me recorded activity change, negative = cytotoxicity for CCCCCCn1c(=O)c2c(ncn2C)n(C)c1=O
Ans: inactive

Q: Could you please provide reported activity change, negative = cytotoxicity for CCOC(=O)NCCC[Si](OCC)(OCC)OCC ? Thanks!
Ans: inactive

Q: Indicate the recorded activity change, negative = cytotoxicity value for this compound: C=CC(C)(O)CC/C=C(\C)CCC=C(C)C (centres undefined)
Ans: inactive

Q: Item O=Cc1ccc(F)c(Br)c1 : provide activity change, negative = cytotoxicity
Ans: inactive

Q: Answer with reported activity change, negative = cytotoxicity of FC(F)(F)C(F)(F)C(F)(F)C(F)(F)C(F)(F)C(F)(F)C(F)(F)C(F)(F)Br
Ans: inactive

Q: Answer with reported activity change, negative = cytotoxicity of O=c1[nH]cnc2c1ncn2[C@@H]1O[C@H](CO)[C@@H](O)[C@H]1O
Ans: inactive

Q: Indicate the recorded activity change, negative = cytotoxicity value for this compound: COC(=O)c1ccc(OC)cc1
Ans: inactive

Q: Provide activity change, negative = cytotoxicity value for the following compound: O=C1CCCc2ccccc21
Ans: inactive

====

Can you tell me activity change, negative = inhibition for the items I'm about to list?
Target: Voltage-gated inwardly rectifying potassium channel KCNH2 (Homo sapiens) (UniProt Q12809)
Sequence (Q12809 whole entry, looked up): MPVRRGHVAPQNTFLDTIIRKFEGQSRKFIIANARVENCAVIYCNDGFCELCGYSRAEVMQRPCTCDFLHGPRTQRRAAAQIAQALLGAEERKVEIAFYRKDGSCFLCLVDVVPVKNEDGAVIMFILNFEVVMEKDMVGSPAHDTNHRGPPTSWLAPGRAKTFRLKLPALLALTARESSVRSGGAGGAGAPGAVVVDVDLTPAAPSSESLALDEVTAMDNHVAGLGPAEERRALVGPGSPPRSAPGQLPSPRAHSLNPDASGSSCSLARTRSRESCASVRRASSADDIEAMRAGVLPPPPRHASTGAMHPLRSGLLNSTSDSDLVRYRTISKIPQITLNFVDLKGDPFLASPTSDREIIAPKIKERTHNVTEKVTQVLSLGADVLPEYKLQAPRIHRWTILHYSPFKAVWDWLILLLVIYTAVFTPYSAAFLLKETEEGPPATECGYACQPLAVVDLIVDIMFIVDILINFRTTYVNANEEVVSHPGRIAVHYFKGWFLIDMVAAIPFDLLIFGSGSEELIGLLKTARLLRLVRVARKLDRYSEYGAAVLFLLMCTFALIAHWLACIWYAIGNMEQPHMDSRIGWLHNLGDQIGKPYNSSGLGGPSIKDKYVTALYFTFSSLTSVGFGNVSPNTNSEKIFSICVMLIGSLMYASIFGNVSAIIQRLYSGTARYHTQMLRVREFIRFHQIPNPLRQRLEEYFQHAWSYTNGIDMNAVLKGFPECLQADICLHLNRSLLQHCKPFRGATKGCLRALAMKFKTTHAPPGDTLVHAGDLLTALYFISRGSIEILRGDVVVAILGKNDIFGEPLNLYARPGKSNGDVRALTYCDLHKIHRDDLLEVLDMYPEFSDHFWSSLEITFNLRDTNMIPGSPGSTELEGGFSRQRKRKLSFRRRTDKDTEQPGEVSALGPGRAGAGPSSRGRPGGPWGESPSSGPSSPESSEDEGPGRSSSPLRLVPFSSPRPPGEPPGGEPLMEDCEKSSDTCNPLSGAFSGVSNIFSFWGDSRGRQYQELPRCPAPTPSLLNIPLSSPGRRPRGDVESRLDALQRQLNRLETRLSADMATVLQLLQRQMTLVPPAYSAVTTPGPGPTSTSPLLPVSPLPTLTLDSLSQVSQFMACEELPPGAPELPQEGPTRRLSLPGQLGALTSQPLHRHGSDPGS
Assay: Human Ether-a-go-go-Related Gene (hERG) channel small molecule antagonists: fluorescence cell-based qHTS assay (AID 1671200);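 note: hERG-expressing U2OS cells given a thallium stimulus after FluxOR II dye loading; % is set by controls: 0 for no effect and ±100 for the full control effect; nearly all actives have a fitted effect of over 50% in size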
Details: hERG-U2OS cells, FluxOR thallium flux fluorescence; series mostly up to 76.8 µM
Inconclusive results are not listed. Calls of active or inactive are those of the source. Calls follow the shape of the dose curve; as a rule, active = well fitted inhibition curve with a large enough effect in the repeat runs; inconclusive = weak or mixed curves; inactive = flat fitted curve, though single readings scatter.

Q: Tell me measured activity change, negative = inhibition for O=C(O)CN(CCN(CC(=O)O)CC(=O)O)CCN(CC(=O)O)CC(=O)O please.
Ans: 6.28% [at 15.8 µM] (inactive)

Q: Provide activity change, negative = inhibition value for the following compound: O=C(O)c1ccccc1Nc1cc(Cl)ccc1C(=O)O
Ans: 6.42% [at 15.8 µM] (inactive)

Q: Give the value of activity change, negative = inhibition reported for the following: NC(Cc1ccc(F)cc1)C(=O)O (centres undefined)
Ans: 3.14% [at 6.97 µM] (inactive)

Q: Report measured activity change, negative = inhibition; entry is C[C@@H]1CN(c2c(F)c(N)c3c(=O)c(C(=O)O)cn(C4CC4)c3c2F)C[C@H](C)N1
Ans: -2.21% [at 15.8 µM] (inactive)

====

Experiment: qHTS assay to identify small molecule agonists of the sonic hedgehog signaling (Shh) pathway - cell viability counter screen (AID 1259366); note: % is set by controls: 0 for no effect and ±100 for the full control effect; nearly all actives have a fitted effect of over 50% in size
Details: NIH/3T3 Gli1-Luc viability, CellTiter-Fluor, 24 h; series mostly up to 92.4 µM
Description: National Center for Advancing Translational Sciences [NCATS] NIH Chemical Genomics Center [NCGC] U.S. Environmental Protection Agency [EPA] National Institutes of Environmental Health Sciences [NIEHS] National Toxicology Program [NTP] U.S. Food and Drug Administration [FDA] The sonic hedgehog (Shh) pathway is essential for normal embryonic development. Dysregulation of the Shh pathway can cause severe developmental defects in organs. […]
Results filed as inconclusive are left out. Activity calls are given as the source filed them. Calls come from the whole dose curve; as a rule, active = well fitted cell-killing curve with a large enough effect in the repeat runs; inconclusive = weak or mixed curves, or effect the other way; inactive = flat fitted curve, though single readings scatter.
Value type: viability change, negative = cytotoxic

// worked examples, viability change, negative = cytotoxic included
INSERT INTO measurements (molecule, result) VALUES
  ('N#Cc1ccc(C(c2ccc(C#N)cc2)n2cncn2)cc1', 'inactive'),
  ('CC1CN(c2ccccc2)NC1=O (stereo not drawn)', 'inactive'),
  ('CCCCNc1cc(C(=O)O)cc(S(N)(=O)=O)c1Oc1ccccc1', 'inactive'),
  ('COc1ccc(S(=O)(=O)Nc2nnc(CC(C)C)s2)cc1', 'inactive'),
  ('CCOC(=O)NCCC[Si](OCC)(OCC)OCC', 'inactive'),
  ('CC(C)CCCCCCc1ccc(OCCOCCO)cc1', 'inactive'),
  ('CN1CCN(c2c(F)cc3c(=O)c(C(=O)O)cn(CCF)c3c2F)CC1', 'inactive'),
  ('O=C1C=CC(=O)O1', 'inactive'),
  ('CC(C)CC(=O)OCc1ccccc1', 'inactive'),
  ('C[C@@H]1CN(c2c(F)c(N)c3c(=O)c(C(=O)O)cn(C4CC4)c3c2F)C[C@H](C)N1', '1.22% [at 19 µM] (inactive)');

Q: Please supply the value of reported viability change, negative = cytotoxic for the item CCCCNCCCC
Ans: inactive

Q: Entry CCN(CC)CCNC(=O)COc1ccc(Cl)cc1 needs its viability change, negative = cytotoxic filled in; supply it.
Ans: inactive

Q: Tell us which viability change, negative = cytotoxic value is on record for CN1CCN(c2c(F)cc3c(=O)c(C(=O)O)cn4c3c2SCC4)CC1
Ans: inactive
